B1: 1ZHC (parent)
chain: HEFRDEISVLKANNPHFDKIFEKHNQLDDDIKTAEQQNASDAEVSHMKKQKLKLKDEIHSMIIEYREK

- Variants of: B1
- METHOD_SUMMARY: folding stability dG (cDNA display proteolysis); higher = more stable
- MEASUREMENT_CONTEXT: PBS, room temperature
Quick rule for you: folding stability dG at 4 kJ/mol or higher means fulfilled, lower means not fulfilled.

Consider the following illustrative entries.
{"CHANGE": "V44I", "ASSIGNED_LABEL": "fulfilled"}
{"CHANGE": "V9M", "ASSIGNED_LABEL": "fulfilled"}
{"CHANGE": "E6A", "ASSIGNED_LABEL": "fulfilled"}
{"CHANGE": "D28Q", "ASSIGNED_LABEL": "not fulfilled"}
{"CHANGE": "A34M", "ASSIGNED_LABEL": "not fulfilled"}
{"CHANGE": "H59W", "ASSIGNED_LABEL": "fulfilled"}

Dear colleague, could you confirm whether N13S has folding stability dG at or above 4 kJ/mol?
not fulfilled
